Reported self-cleavage values follow for various variants
B1: HDV Ribozyme (parent)
chain: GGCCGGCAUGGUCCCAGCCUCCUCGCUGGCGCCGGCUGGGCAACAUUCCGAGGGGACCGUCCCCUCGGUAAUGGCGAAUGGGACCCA

Variants of: B1
Assay: self-cleavage, relative activity (ratio to wild type); higher = more cleavage; co-transcriptional
Please reply with the value in numeric form only.

* G11A G35U | 0.149

Ask | Read the entry C19U A43C and write its reported self-cleavage.
Reply | 0.111

Ask | Read the entry G17C U23C and write its reported self-cleavage.
Reply | 0.208

Ask | Read the entry A51G G82U and write its reported self-cleavage.
Reply | 0.203

Ask | Read the entry C13U C32A and write its reported self-cleavage.
Reply | 0.172

Ask | Read the entry G17U A56G and write its reported self-cleavage.
Reply | 0.609
